Molecular target: T1, TerR35-138 (Aspergillus terreus SBUG844, UniProt Q0D1P5 35-138)
T1 sequence: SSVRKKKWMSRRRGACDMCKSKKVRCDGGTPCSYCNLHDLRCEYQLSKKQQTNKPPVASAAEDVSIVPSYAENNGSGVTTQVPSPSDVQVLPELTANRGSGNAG
Test: SPR; molar ratio 1.12; SPR (Biacore 2000, SA-coated CM3 chip): 10 mM HEPES pH 7.4, 150 mM NaCl, 0.005% P20, 5 mM beta-mercaptoethanol, 1 uM ZnCl2, 25 C; protein 12.5-6400 nM; 1:1 model with mass transport
Conditions: protein: recombinant; (pET-29a; theoretical mass 11.35 kDa); label: biotin on one strand; 18 bp duplex
outcomeMeasure: Kd (nM)
Number only, in nM; omit the unit.

-- ask Please look up its Kd: BS1 (dsDNA) DNA 1: GAGTCGGCATTACGGCGG DNA 2: CCGCCGTAATGCCGACTC
-- reply 527
